TARGET_OF_ASSAY: UniProt:Q99572
PROTOCOL_SUMMARY: P2X7 pKi of Table 1
Format: cell-based
We begin with a simple list: items and their reported pKi.
Give your answer as a number; write no unit.

Sample records with pKi:
Cc1ccc(C)c(NC(=O)C2=CNC(=O)CC2c2ccc(F)cc2)c1 (stereo not drawn)
6.93
Cc1cc(C)c(OCCO)cc1NC(=O)C1=CNC(=O)C[C@H]1c1ccc(F)cc1
7.815
COc1cccc(NC(=O)C2=CNC(=O)C[C@H]2c2ccc(F)cc2)c1C
7.375
Cc1cccc(NC(=O)C2=CNC(=O)CC2c2cccc(F)c2)c1C (stereo not drawn)
7.405
COc1cc(NC(=O)C2=CNC(=O)C[C@H]2c2cccc(F)c2)c(C)cc1F
7.975

Q: I am curious: what pKi value has been reported for `COc1cc(Br)c(NC(=O)C2=CN(C)C(=O)C[C@H]2c2ccc(F)cc2)cc1OC` ?
Result: 5.875

Q: Reported pKi, molecule O=C1CC(c2ccc(F)cc2)C(C(=O)Nc2cc3c(cc2Cl)OC(F)(F)O3)=CN1 (stereo not drawn) : ____
Result: 5.46

Q: Which pKi is listed for COc1cc(C)c(NC(=O)C2=CN(C)C(=O)C(C)C2c2ccc(F)cc2)cc1OC (stereo not drawn) ?
Result: 5.65

====

TARGET_OF_ASSAY: P2X7 (UniProt Q99572)
PROTOCOL_SUMMARY: P2X7 pKi of Table 1
Assay type: cell-based
Recorded pKi values for a group of compounds are listed next.
Respond using a number only.

Consider the worked cases shown below.
COc1cc(NC(=O)C2=CNC(=O)CC2c2cccc(F)c2)c(C)cc1F (stereo not shown)
8.17
COc1cc(NC(=O)C2=CNC(=O)CC2c2ccccc2)c(Br)cc1Cl (stereo not shown)
5.95
Cc1c(F)cccc1NC(=O)C1=CNC(=O)C[C@H]1c1ccc(F)cc1
6.63
COc1ccc(Br)c(NC(=O)C2=CNC(=O)CC2c2cccc(F)c2)c1 (stereo not shown)
6.19
O=C1CC(c2cccc(F)c2)C(C(=O)Nc2cccc3c2CCC3)=CN1 (stereo not shown)
6.915

Q: Query (compound): Cc1cccc(NC(=O)C2=CNC(=O)CC2c2ccc(F)cc2)c1C (stereo not shown) ; field requested: pKi
Result: 7.12

Q: GET /values?readout=pKi&item= `Cc1cc2c(cc1NC(=O)C1=CNC(=O)C[C@H]1c1ccc(F)cc1)OCCO2`
Result: 6.94

Q: Request the reported pKi associated with COc1cc(C)c(NC(=O)C2=CNC(=O)CC2c2ccc(F)cc2)cc1OC (stereo not shown)
Result: 7.98

Q: Fill in: pKi of `O=C1C[C@@H](c2ccc(F)cc2)C(C(=O)Nc2cccc(Cl)c2Cl)=CN1` is ___
Result: 6.75

Q: Query: pKi; subject: `Cc1cc(C)c(Br)c(NC(=O)C2=CNC(=O)C[C@H]2c2ccc(F)cc2)c1`
Result: 6.86

Q: Give the measured pKi of Cc1cc(Cl)c(OCC(O)CO)cc1NC(=O)C1=CNC(=O)C[C@H]1c1cccc(F)c1 (stereo partly shown) .
Result: 5.76

====

Below, each entry is listed with its recorded pKi.
TARGET_OF_ASSAY: P2X7 (UniProt Q99572)
PROTOCOL_SUMMARY: P2X7 pKi of Table 1
Format: cell-based

Cc1ccc([C@H](C)O)cc1NC(=O)C1=CNC(=O)C[C@H]1c1ccc(F)cc1 [Compound 90]
7.19
Cc1cc(CCO)ccc1NC(=O)C1=CNC(=O)C[C@H]1c1ccc(F)cc1 [Compound 105]
6.77
COc1cc(NC(=O)C2=CNC(=O)CC2c2cccc(F)c2)c(Br)cc1F (stereo not shown) [Compound 35]
6.65
Cc1ccc(S(N)(=O)=O)cc1NC(=O)C1=CNC(=O)CC1c1ccc(F)cc1 (stereo not shown) [Compound 67]
5.515
O=C1C[C@@H](c2cccc(F)c2)C(C(=O)Nc2cc(OCCO)c(Cl)cc2Br)=CN1 [Compound 78]
7.695

Q: If you can, please state the reported pKi value of COc1cc(C)c(NC(=O)C2=CN(CCO)C(=O)C[C@H]2c2ccc(F)cc2)cc1OC [Compound 146] .
Result: 7.71

Q: Item COC(=O)COc1cc(NC(=O)C2=CNC(=O)C[C@H]2c2ccc(F)cc2)c(C)cc1Cl [Compound 125] has what recorded pKi?
Result: 7.645

Q: // returns reported pKi for input COc1cc(Br)c(NC(=O)C2=CNC(=O)C[C@@H]2c2cccc(F)c2)cc1OC [Compound 34]
Result: 6.9783

Q: Given COc1cc(C)c(NC(=O)C2=CN(CCO)C(=O)CC2c2ccc(F)cc2)cc1OC (stereo not shown) [Compound 79] , state its recorded pKi.
Result: 7.42

Q: Quick one: pKi of Cc1cc(Cl)c(OCCO)cc1NC(=O)C1=CNC(=O)C[C@@H]1c1ccc(F)cc1 [Compound 74] ?
Result: 6.63

Q: For the compound shown here, CCc1cc(Cl)c(OC)cc1NC(=O)C1=CNC(=O)C[C@H]1c1ccc(F)cc1 [Compound 118] , give the reported pKi.
Result: 7.075

Q: Sample COC[C@@H](O)COc1cc(NC(=O)C2=CN(C)C(=O)C[C@H]2c2cccc(F)c2)c(C)cc1Cl [Compound 149] — what was its pKi?
Result: 6.035

Q: Find the recorded pKi belonging to Cc1cccc(NC(=O)C2=CNC(=O)C[C@H]2c2ccc(F)cc2)c1C [Compound 58] and report it.
Result: 6.785

Q: I have this compound here, COC(=O)c1cc(Br)c(NC(=O)C2=CNC(=O)CC2c2cccc(F)c2)cc1OC (stereo not shown) [Compound 23] , and I need its recorded pKi.
Result: 5.92
